Measured values drawn from patent US8440417B2 for this set.

molecular target: MBP-H-PGDS fusion enzyme (Homo sapiens); experiment: MBP-H-PGDS fluorescence polarization (FP) displacement assay; conditions: detection analyte Compound 20; mean ± spread, N in cell; read-out: MBP-H-PGDS FP Assay: test compound IC50
Sequence (O60760 2-199, looked up): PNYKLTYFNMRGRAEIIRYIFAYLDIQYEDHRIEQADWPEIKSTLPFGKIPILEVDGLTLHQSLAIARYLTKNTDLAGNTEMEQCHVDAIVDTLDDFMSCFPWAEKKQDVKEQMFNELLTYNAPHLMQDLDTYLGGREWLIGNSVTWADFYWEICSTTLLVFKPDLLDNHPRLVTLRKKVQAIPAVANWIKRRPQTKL
pIC50: −log10 of the molar value.
Label yes (1) for high-side pIC50 (at or above 7) and no (0) for low-side pIC50 (below it).

- querySmiles: "Cc1nc(-c2cccc(F)c2)sc1C(=O)NCc1ccccc1"
  systemName: "MBP-H-PGDS fusion enzyme (Homo sapiens)"
  class: "no (0)"
- querySmiles: "O=C(NC1CCN(Cc2ccccc2)CC1)c1cnc(-c2ccccc2)nc1"
  systemName: "MBP-H-PGDS fusion enzyme (Homo sapiens)"
  class: "yes (1)"
- querySmiles: "Cc1ccc2nc(NC(=O)N3CCN(C(=O)c4cccc(F)c4)CC3)sc2c1"
  systemName: "MBP-H-PGDS fusion enzyme (Homo sapiens)"
  class: "no (0)"
- querySmiles: "COc1ccc(CNC(=O)c2ccc(-c3ccccc3)nc2)cc1OC"
  systemName: "MBP-H-PGDS fusion enzyme (Homo sapiens)"
  class: "no (0)"
- querySmiles: "c1ccc(C(OC2CCN(CCCc3nnn[nH]3)CC2)c2ccccc2)cc1"
  systemName: "MBP-H-PGDS fusion enzyme (Homo sapiens)"
  class: "no (0)"
- querySmiles: "Cc1[nH]c(C(=O)CCCc2ccccn2)c(C)c1-c1nc2cc(C(=O)c3ccccc3)ccc2[nH]1"
  systemName: "MBP-H-PGDS fusion enzyme (Homo sapiens)"
  class: "yes (1)"
- querySmiles: "O=C(NC1CCN(Cc2ccccc2)CC1)c1ccc(-c2ccccc2)nc1"
  systemName: "MBP-H-PGDS fusion enzyme (Homo sapiens)"
  class: "yes (1)"
- querySmiles: "O=C(Nc1ccc(N2CCOCC2)cc1)c1cnc(Oc2ccccc2)nc1"
  systemName: "MBP-H-PGDS fusion enzyme (Homo sapiens)"
  class: "yes (1)"
- querySmiles: "O=C(NC1CCN(Cc2ccccc2)CC1)c1ccc(-c2cccc(F)c2)nc1"
  systemName: "MBP-H-PGDS fusion enzyme (Homo sapiens)"
  class: "yes (1)"
- querySmiles: "c1ccc(-c2ncc(-c3cc[nH]n3)s2)cc1"
  systemName: "MBP-H-PGDS fusion enzyme (Homo sapiens)"
  class: "no (0)"
- querySmiles: "O=C(NCCNc1ccccc1)c1cnc(-c2ccccc2)nc1"
  systemName: "MBP-H-PGDS fusion enzyme (Homo sapiens)"
  class: "no (0)"
- querySmiles: "O=C(c1cnc(-c2ccccc2)nc1)N1CCNCC1"
  systemName: "MBP-H-PGDS fusion enzyme (Homo sapiens)"
  class: "no (0)"
